- Test system: MS2 coat protein
- test-method-notes: apparent Kd, MS2 coat protein; higher = weaker binding; RNA-MaP array; FMN 200 µM where present
- particulars: designed as: ON switch for flavin mononucleotide; no ligand
Would you mind labelling by apparent Kd? At or over 20 nM is rule met, under is rule not met.

| seq | test-system | assigned-label |
| --- | --- | --- |
| CACGUCCACACAGGAUAUGCUGGACUUUGUCCAGCAGAAGGGUGAAAACAUGAGGAUCACCCAUGUAGGACGUGUAUAUUUAAU | MS2 coat protein | rule met |
| GCAGCACUUUAAAACAUGAGGAUCACCCAUGUCGAUUGUUAUGAGGAUAUGCAUCGGAUGAAGAUGCAGAAGGCAUUGUGCUGC | MS2 coat protein | rule not met |
| ACCCGACAUGAGGAUCACCCAUGUAAACAAUCAUGAGGAUAUCCGGAGCAAGUGCUCCAGGGAGAAGGCAUAAAAG | MS2 coat protein | rule met |
| GUAGCAUUAUAAGGAUAUUCAUACCGGAAACGGACAUGAGGAUCACCCAUGUGGCGAAAGCCUUGGGAGAAGGUAUUGUGCUAC | MS2 coat protein | rule met |
| GCGCUUAUACAGAAGGCCAGUUACAUGAGGAUCACCCAUGUUAGAUUGUGGAGGAUAUGUGUUUUAUUACAGAUAGUUGAGCGC | MS2 coat protein | rule not met |
| ACCAGGGAUUCAGGAUAUAUUAGCCGAGGCCGCGUAGAAGGGAAAUCCUGACAUGAGGAUCACCCAUGUCGACCCGCCUUCCAC | MS2 coat protein | rule met |
| GCGUUCUUGUAGAAGGUACAUAAAAUCUAUUUUUAACACAUGAAACAUGAGGAUCACCCAUGUUGUAAGGAUAUACAUGAACGC | MS2 coat protein | rule not met |

###

- Test system: MS2 coat protein
- test-method-notes: apparent Kd, MS2 coat protein; higher = weaker binding; RNA-MaP array
- particulars: ligand present: flavin mononucleotide; designed as: ON switch for flavin mononucleotide
Would you mind labelling by apparent Kd? At or over 10 nM is Met, under is Not met.

| seq | test-system | assigned-label |
| --- | --- | --- |
| GCUACACAUGAGGAUCACCCAUGUAUGCAUAGACGAGGAUAUAGACCACCUCCCGGGAUACUAGAAGGCGUGAUAU | MS2 coat protein | Met |
| AAAUCUAACGAGAAGGGAGUGGCCGGCCACUUAGCAGACAUGAGGAUCACCCAUGUGAAGAUCACUCAGGAUAUCGAUAAUCCA | MS2 coat protein | Met |
| GAGAGGCGCUAGAAGGCACGCGUUCGGAUUGAGUGAGGAUAUAGUCCUCUGCCACAUGAGGAUCACCCAUGUAGUUUGAUAGAG | MS2 coat protein | Not met |
| CCGCUCGGGACAUGAGGAUCACCCAUGUUACCUUGCCGUGAGAGAAGGGACACGGCCAGCUCAUGUCAGGAUAUCUCAGCGUAU | MS2 coat protein | Met |
| AUGGACCCAAAGAAGGAGAUCUGGACGACCCAUCUAGGAUAUUUGGCGCGCCCAUCCACCUGCACAUGAGGAUCACCCAUGUCG | MS2 coat protein | Not met |
| CCAACCUGUCGAGCACCAUAACAUGAGGAUCACCCAUGUAUCAGAAGGUGUGUGAGUAAGGAAGACAAGGAUAUGACUCGACGC | MS2 coat protein | Met |

###

Attribute: apparent Kd
- Tested on: MS2 coat protein
- test-method-notes: apparent Kd, MS2 coat protein; higher = weaker binding; RNA-MaP array; theophylline 2 mM where present
- particulars: ligand present: theophylline; designed as: OFF switch for theophylline
value-kind: apparent Kd

| seq | test-system | value-reported |
| --- | --- | --- |
| AUUCCAUAGGUGCAGUUGUUAAAUGGCGAUACCAGCGUGGAAACACGCCCUUGGCAGCGCCAAAACAUGAGGAUCACCCAUGUUA | MS2 coat protein | 186 nM |
| AGACAUGAGGAUCACCCAUGUAGUACGGAUACCAGAUCCAGAUGCAUCCCUUGGCAGCUGUGGUACAGCGUUACAUCGCUCGUAG | MS2 coat protein | 20.6 nM |
| AAACAUUGCUGCGAUACCAGACAUGAGGAUCACCCAUGUACCAAGAAAACGUACAUAAAUGUCCCUUGGCAGCGCAGCAAUGAAA | MS2 coat protein | 1290 nM |
| ACAUGAGGAUCACCCAUGUGCCGUCUUGAUACCAGACCCGAAGUAGUCCCUUGGCAGCAACUACGUGACGGUCGCCCAUGUGUAG | MS2 coat protein | 24 nM |

###

- Tested on: MS2 coat protein
- test-method-notes: apparent Kd, MS2 coat protein; higher = weaker binding; RNA-MaP array; FMN 200 µM where present
- particulars: ligand present: flavin mononucleotide; designed as: OFF switch for flavin mononucleotide
Attribute: apparent Kd

| seq | unit-name | apparent Kd |
| --- | --- | --- |
| ACGUGUCGUGUAGGAUAUGACACAGGAAACUGGUCAGAAGGACAUGAGGAUCACCCAUGUAGAGUGUGUUAGGAUGACGUAUGC | µM | 0.199 |
| UAAAAGACUAGCAAAUAAGUUCCACAUGAGGAUCACCCAUGUCAGGAUAUGAGCAGCAAAGCUGCUCAGAAGGGAUAGCUAGUC | µM | 0.00639 |
| GGAUCGCAAGAAGAUCCAAUACGAACAUGAGGAUCACCCAUGUAGGAUAUGCUAGAAGAAGAGUAGCAGAAGGACAUGUGCCUU | µM | 0.0427 |
| ACCAAUGCAGGAUAUACAUGAGGAUCACCCAUGUAUAACCUACAUAGGUGAUCCUCAUGUAGAAGGGCAUUGGA | µM | 0.01 |
| GGUUGACAAAGUCAACCAAUUCGAACAUGAGGAUCACCCAUGUAGGAUAUGCUACUCAAAGAGUAGCAGAAGGACAUGUGCCUU | µM | 0.188 |
| AAUAUAAAGAGCUGGUACUCAAUAACAUGAGGAUCACCCAUGUAGGAUAUCAGCACGAUAAGUGCUGAGAAGGACAUCCAGCUC | µM | 0.0294 |
| GGAUAGGACAGAGGAUAUACGUGCUAGAGAUACUAGCAAGAUUUCCUCACAUGAGGAUCACCCAUGUAGAAGGCUGUCCUAUCG | µM | 0.348 |

###

- Tested on: MS2 coat protein
- test-method-notes: apparent Kd, MS2 coat protein; higher = weaker binding; RNA-MaP array
- particulars: ligand present: flavin mononucleotide; designed as: OFF switch for flavin mononucleotide
Would you mind labelling by apparent Kd? At or over 0.02 µM is MET, under is NOT MET.

| seq | test-system | assigned-label |
| --- | --- | --- |
| UUGCAGGCAGGAUAUACGGUAUAUAACAUGAGGAUCACCCAUGUUCUUCACGAUCCCUGCGUAGAAGGGCCACAUU | MS2 coat protein | NOT MET |
| UAGGAACAUGAGGAUCACCCAUGUUAGGAUAUCGAGGUAUGGAUUAUCAUGCUGUAAGCGAGAAGGAACGUGUG | MS2 coat protein | MET |
| CUUAGGUGAGGAUAUCCUGAAUGGGUCGCUACCAGCCGUUCGGAGAAGGCACAUGAGGAUCACCCAUGUUUUGA | MS2 coat protein | MET |
| AUCUUUGUAGGAUAUCCUGAGGCAAACAUGAGGAUCACCCAUGUCCCAAGAAUGACUAAAGGAGAAGGACACUCGG | MS2 coat protein | MET |
| AAAGAAAGAGUGAGGAUAUGAUAUAAACAAAAGUAACAGAAGGCACAUGAGGAUCACCCAUGUGACUAUAGAAU | MS2 coat protein | NOT MET |
| GUAUGGAUAUUCUCACGCUACAUGAGGAUCACCCAUGUUCUAAGAAGGCGGCGAGGUAGAGCAUCCGAGGAUAUUAGAACUCAG | MS2 coat protein | MET |
| AAACUCCGCAAGAAGGGUAUUCAAUGAAGUUGUACAGGAUAUUGGCGCAGACAUGAGGAUCACCCAUGUAAGUUCUUCAUGGUU | MS2 coat protein | MET |
| ACAUGAGGAUCACCCAUGUUCUCAAGUAUAAUAGAUAAAUCAAGAAGGGCUAAUCGACCGAAUAAGCAGGAUAUUGUGAUAUGG | MS2 coat protein | MET |
| UUGCUCCAUCAGAAGGUCUACGCACAUGAGGAUCACCCAUGUUCUGGAAUCAUCUUGUGUGCCAAGAAGGAUAUGACUUCAAGU | MS2 coat protein | MET |
| UCCAUGUUAGGAUAUCGGCCACCUUCGACAAAAGUGUACUGCGAGAAGGAACAUGAGGAUCACCCAUGUCUGGG | MS2 coat protein | MET |
| CGUAUAGCAGGAUAUACAUGAGGAUCACCCAUGUUUUUCGUUGUGUGGUGCCAAGCGUGUAGAAGGGCUUCCUC | MS2 coat protein | MET |
| CUGUGCGAACAGAAGGUGGCGUGUUAUCGGGACCAAGGAUAUGUUUACUAUUGUGACAAUUCACAUGAGGAUCACCCAUGUACA | MS2 coat protein | NOT MET |
| AGCACAAUAGGAUAUACAUGAGGAUCACCCAUGUAGAAAUUUGGUACCCGGGUGUCUUGUAGAAGGAUAGAAGA | MS2 coat protein | NOT MET |
| AAUAUGUAAGGAUAUACUGAAAUAAUAAUAAUAAUAAAUGAGUAGAAGGAACAUGAGGAUCACCCAUGUGAAAC | MS2 coat protein | NOT MET |
| ACACCUAUAGUGAGGAUAUAGAUCGAAACAAUCGACAAGAAGGCACAUGAGGAUCACCCAUGUAAGGCGCAAAU | MS2 coat protein | NOT MET |
